# tgt: human PAD4 (Homo sapiens)
# Construct: human PAD4 (NM_012387), A2-P663, was PCR amplified; His-SUMO (N, cleaved yes)
# procedureSummary: In vitro PAD4 BAEE biochemical assay
# statedConditions: BAEE substrate 3 mM, 5 nM PAD4, 2 mM calcium chloride; geometric mean of multiple experiments
quantityName: IC50 (nM)

compound	tgt	quantityName	measurementUnits	measurement
COc1cc(C(=O)N2[C@H]3CC[C@@H]2[C@H](N)C3)cc2nc(-c3cc4ccc5nc4n3CCCCCCC(=O)N[C@@H]5C)c(C)n12	human PAD4 (Homo sapiens)	IC50	nM	16
COc1cc(C(=O)N2CCC[C@@H](N)C2)cc2nc(-c3cc4ccc5nc4n3C[C@@H]3C[C@H]3CO[C@@H](C)CC(=O)N[C@@H]5C)n(C)c12	human PAD4 (Homo sapiens)	IC50	nM	88
COc1cc(C(=O)N2[C@H]3CC[C@@H]2[C@H](N)C3)cc2nc(-c3cc4ccc5nc4n3CCCCCC[C@@H](OC)C(=O)N[C@@H]5C)c(C)n12 (single isomer, unassigned)	human PAD4 (Homo sapiens)	IC50	nM	39
COc1cc(C(=O)N[C@H]2CNC[C@@H](C(F)F)C2)cc2nc(-c3cc4ccc5nc4n3CC(F)(F)CCC[C@@H]3C[C@H]3C(=O)N[C@@H]5C)n(C)c12	human PAD4 (Homo sapiens)	IC50	nM	57
COc1cc(C(=O)N2CC[C@@H](O)[C@@H](N)C2)cc2nc(-c3cc4ccc5nc4n3CC(F)(F)CCC[C@@H]3C[C@H]3C(=O)N[C@@H]5C)n(C)c12	human PAD4 (Homo sapiens)	IC50	nM	34

* * *

# tgt: human PAD4 (Homo sapiens, UniProt Q9UM07)
# Construct: human PAD4 (NM_012387), A2-P663, was PCR amplified; His-SUMO (N, cleaved yes); made in house; host or cells: E. coli BL21(DE3)
# Sequence (Q9UM07 2-663): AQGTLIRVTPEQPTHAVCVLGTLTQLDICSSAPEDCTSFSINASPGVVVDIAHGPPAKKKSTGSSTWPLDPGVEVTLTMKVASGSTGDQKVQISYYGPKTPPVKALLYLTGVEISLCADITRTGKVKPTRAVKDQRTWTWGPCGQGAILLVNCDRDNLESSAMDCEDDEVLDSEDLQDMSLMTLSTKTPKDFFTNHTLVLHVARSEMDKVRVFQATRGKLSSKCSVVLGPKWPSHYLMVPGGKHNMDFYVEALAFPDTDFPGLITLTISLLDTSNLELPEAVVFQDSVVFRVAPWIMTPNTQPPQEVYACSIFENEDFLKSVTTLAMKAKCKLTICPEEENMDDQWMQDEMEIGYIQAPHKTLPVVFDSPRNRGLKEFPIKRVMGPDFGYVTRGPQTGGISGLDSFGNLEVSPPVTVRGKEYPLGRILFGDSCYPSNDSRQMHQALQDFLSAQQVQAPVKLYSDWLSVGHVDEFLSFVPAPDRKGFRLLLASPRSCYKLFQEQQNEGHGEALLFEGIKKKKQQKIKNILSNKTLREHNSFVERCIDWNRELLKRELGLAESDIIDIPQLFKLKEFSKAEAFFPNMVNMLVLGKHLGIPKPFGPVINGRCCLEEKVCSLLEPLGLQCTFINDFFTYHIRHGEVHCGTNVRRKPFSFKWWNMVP
# procedureSummary: In vitro PAD4 BAEE biochemical assay
# statedConditions: BAEE substrate 3 mM, 5 nM PAD4, 2 mM calcium chloride; geometric mean of multiple experiments
// log10 of IC50 lookup, one value per entry
quantityName: log10 of IC50 (log10 of the value in nM)

compound	measurement
C[C@H]1NC(=O)C(C)(C)CCCCCCn2c(-c3nc4cc(C(=O)N5CCC[C@@H](N)C5)c(F)cc4n3C3CC3)cc3ccc1nc32	1.84
C[C@H]1NC(=O)C2(CCCCCCn3c(-c4nc5cc(C(=O)N[C@H]6CNCC[C@@H]6F)c(F)cc5n4C)cc4ccc1nc43)CC(F)(F)C2	1.96
COc1cc(C(=O)N2CCC[C@@H](N)C2)cc2nc(-c3cc4ccc5nc4n3C[C@H]3C[C@H]3CCCC(C)(C)C(=O)N[C@@H]5C)n(C)c12	1.78
COc1cc(C(=O)N2CCC[C@@H](N)C2)cc2nc(-c3cc4ccc5nc4n3CCCCCCCC(=O)NC5C(F)F)n(C)c12 (stereo partly drawn)	1.94
COc1cc(C(=O)N2CC[C@@H](OC)[C@@H](N)C2)cc2nc(-c3cc4ccc5nc4n3CCCCCc3cc(Cl)cnc3C(=O)N[C@@H]5C)n(C)c12	2.04
COc1cc(C(=O)N[C@@H]2CNC[C@H]3C[C@H]32)cc2nc(-c3cc4ccc5nc4n3CCCCCCC(C)(C)C(=O)N[C@@H]5C)n(C)c12	2.87

* * *

# tgt: human PAD4 (Homo sapiens)
# Construct: human PAD4 (NM_012387), A2-P663, was PCR amplified; His-SUMO (N, cleaved yes); made in house; host or cells: E. coli BL21(DE3)
# procedureSummary: In vitro PAD4 BAEE biochemical assay
# statedConditions: BAEE substrate 3 mM, 5 nM PAD4, 2 mM calcium chloride; geometric mean of multiple experiments
Response field class: string, computed from recorded IC50 by ranges lo: < 50 nM; med: ≥ 50 nM and < 90 nM; hi: ≥ 90 nM

compound	classLabel
C[C@H]1NC(=O)c2c(C3CC3)cc(Cl)nc2CCCCCn2c(-c3nc4cc(C(=O)N5C[C@H](N)[C@@H]6CC[C@H]5C6)cc(F)c4n3C3CC3)cc3ccc1nc32 [Example 911]	med
COc1cc(C(=O)N2C[C@H](N)[C@@H]3CC[C@H]2C3)cc2nc(-c3cc4ccc5nc4n3CC(F)(F)CCCOC3(CC3)C(=O)N[C@@H]5C)n(C)c12 [Example 761]	med
COc1cc(C(=O)N2CCC[C@@H](N)C2)cc2nc(-c3cc4ccc5cc4n3CCCCC[C@H]3C[C@@H]3C(=O)N[C@@H]5C)n(C)c12 [Example 164]	lo
COc1cc(C(=O)N2[C@H]3CC[C@@H]2[C@H](N)C3)cc2nc(-c3cc4ccc5nc4n3CCCCCC[C@H](C)C(=O)N[C@@H]5C)c(C)n12 [Example 124]	lo
COc1cc(C(=O)N2C[C@H](N)C[C@@H](F)[C@@H]2C)cc2nc(-c3cc4ccc5nc4n3CC(F)(F)CCCC3C[C@H]3C(=O)N[C@@H]5C)n(C)c12 (stereo partly shown) [Example 792]	hi
COc1cc(C(=O)N[C@H]2CNCC[C@@H]2F)cc2nc(-c3cc4ccc5nc4n3CCCCC[C@H]3[C@H](C(=O)N[C@@H]5C)C3(F)F)n(C)c12 [Example 368]	lo
C[C@H]1NC(=O)[C@@H]2C[C@@]2(F)CC[C@@H]2C[C@@H]2Cn2c(-c3nc4cc(C(=O)N5C[C@H](N)[C@@H]6CC[C@H]5C6)cc(F)c4n3C3CC3)cc3ccc1nc32 [Example 918]	lo
COc1cc(C(=O)N2CCC[C@@H](N)C2)cc2nc(-c3cc4ccc5nc4n3CCCCCC[C@@](C)(C(F)(F)F)C(=O)N[C@@H]5C)n(C)c12 [Example 1]	hi
COc1cc(C(=O)N[C@H]2CNCC[C@@H]2F)cc2nc(-c3cc4ccc5nc4n3C[C@H]3[C@H](CCCC(C)(C)C(=O)N[C@@H]5C)C3(F)F)n(C)c12 (single isomer, unassigned) [Example 364]	hi
COc1cc(C(=O)N2CC[C@@H](OC)[C@@H](N)C2)cc2nc(-c3cc4ccc5nc4n3CCCCC[C@@H]3C[C@H]3C(=O)N[C@@H]5C)n(C)c12 [Example 174]	med
COc1cc(C(=O)N2CCC[C@@H](N)[C@H]2C)cc2nc(-c3cc4ccc5nc4n3CC(F)(F)CCC[C@@H]3C[C@H]3C(=O)N[C@@H]5C)n(C)c12 [Example 852]	lo
COc1cc(C(=O)N2CC[C@@H](OCC(F)F)[C@@H](N)C2)cc2nc(-c3cc4ccc5nc4n3CCCCCCC(C)(C)C(=O)N[C@@H]5C)n(C)c12 [Example 14]	hi
COc1cc(C(=O)N2CC[C@@H](OC)[C@@H](N)C2)cc2nc(-c3cc4ccc5nc4n3CCCCC[C@@H]3C[C@@H]3C(=O)N[C@@H]5C)n(C)c12 [Example 524]	hi
COc1cc(C(=O)N2CC[C@@H](OC)[C@@H](N)C2)cc2nc(-c3cc4ccc5nc4n3CC(F)(F)CCCC[C@@](C)(C(F)(F)F)C(=O)N[C@@H]5C)n(C)c12 [Example 727]	hi
COc1cc(C(=O)N2C[C@H]3CC[C@@H]2[C@@H]3N)cc2nc(-c3cc4ccc5nc4n3CC(F)(F)CCC[C@@H]3C[C@H]3C(=O)N[C@@H]5C)n(C)c12 [Example 853]	lo
COc1cc(C(=O)N[C@H]2CNC[C@H](O)C2)cc2nc(-c3cc4ccc5nc4n3CCCCCCC(C)(C)C(=O)N[C@@H]5C)n(C)c12 [Example 526]	med
CCc1c(-c2cc3ccc4nc3n2CCCCCCC(C)(C)C(=O)N[C@@H]4C)nn2cc(C(=O)N3CCC[C@@H](N)C3)ccc12 [Example 237]	med
COc1cc(C(=O)N2CC[C@@H](OC(F)(F)F)[C@@H](N)C2)cc2nc(-c3cc4ccc5nc4n3CCCCC[C@@H]3C[C@H]3C(=O)N[C@@H]5C)n(C)c12 [Example 582]	hi
C[C@H]1NC(=O)[C@@H]2C[C@H]2CCCC(F)(F)Cn2c(-c3nc4cc(C(=O)N5C[C@H](N)[C@@H]6CC[C@H]5C6)cc(F)c4n3[C@H]3C[C@H]3C(F)F)cc3ccc1nc32 [Example 755]	lo
COc1cc(C(=O)N2CC[C@H]3OCCN[C@H]3C2)cc2nc(-c3cc4ccc5nc4n3CC(F)(F)CCC[C@@H]3C[C@H]3C(=O)N[C@@H]5C)n(C)c12 [Example 803]	hi
COc1cc(C(=O)N2CCC[C@@H](N)C2)cc2nc(-c3cc4ccc5nc4n3C[C@@H]3C[C@H]3CC[C@@H]3C[C@H]3C(=O)N[C@@H]5C)n(C)c12 [Example 168]	lo

* * *

# tgt: human PAD4 (Homo sapiens, UniProt Q9UM07)
# Construct: human PAD4 (NM_012387), A2-P663, was PCR amplified; His-SUMO (N, cleaved yes)
# procedureSummary: In vitro PAD4 BAEE biochemical assay
# statedConditions: BAEE substrate 3 mM, 5 nM PAD4, 2 mM calcium chloride; geometric mean of multiple experiments
pIC50: −log10 of the molar value.
Each entry gets not fulfilled if its pIC50 stays under 7, and fulfilled if its pIC50 is 7 or above.

structure	classLabel
[2H]C([2H])([2H])O[C@@H]1CCN(C(=O)c2cc(F)c3c(c2)nc(-c2cc4ccc5nc4n2CC(F)(F)CCC[C@@H]2C[C@H]2C(=O)N[C@@H]5C)n3C2CC2)C[C@@H]1N	fulfilled
COc1cc(C(=O)N[C@H]2CNCC[C@H]2F)cc2nc(-c3cc4ccc5nc4n3CCCCCCC(C)(C)C(=O)N[C@@H]5C)n(C)c12	not fulfilled
[2H]C([2H])([2H])O[C@@H]1CCN(C(=O)c2cc(OC)c3c(c2)nc(-c2cc4ccc5nc4n2CCCCCc2cncc(F)c2C(=O)N[C@@H]5C)n3C)C[C@@H]1N	fulfilled
C[C@H]1NC(=O)[C@@H]2C[C@H]2CCCC(F)(F)Cn2c(-c3nc4cc(C(=O)N5C[C@H](N)[C@@H]6CC[C@H]5C6)cc(F)c4n3[C@@H]3C[C@H]3C(F)F)cc3ccc1nc32	fulfilled
COc1cc(C(=O)N2CC[C@@H](OC)[C@@H](N)C2)cc2nc(-c3cc4ccc5nc4n3CCCCC[C@H]3C[C@]3(C(F)(F)F)C(=O)N[C@@H]5C)n(C)c12	fulfilled
COc1cc(C(=O)N2CC[C@@H](OC)[C@@H](N)C2)cc2nc(-c3cc4ccc5nc4n3CCCCC[C@@H]3C[C@@]3(C(F)(F)F)C(=O)N[C@@H]5C)n(C)c12	not fulfilled
Cc1cncc2c1C(=O)N[C@H](C)c1ccc3cc(-c4nc5cc(C(=O)N[C@H]6CNCC[C@@H]6F)c(F)cc5n4C4CC4)n(c3n1)CCCCC2	fulfilled
